- assayed.target: Polyunsaturated fatty acid lipoxygenase ALOX12 (Homo sapiens) (UniProt P18054)
- Sequence (P18054 whole entry, looked up): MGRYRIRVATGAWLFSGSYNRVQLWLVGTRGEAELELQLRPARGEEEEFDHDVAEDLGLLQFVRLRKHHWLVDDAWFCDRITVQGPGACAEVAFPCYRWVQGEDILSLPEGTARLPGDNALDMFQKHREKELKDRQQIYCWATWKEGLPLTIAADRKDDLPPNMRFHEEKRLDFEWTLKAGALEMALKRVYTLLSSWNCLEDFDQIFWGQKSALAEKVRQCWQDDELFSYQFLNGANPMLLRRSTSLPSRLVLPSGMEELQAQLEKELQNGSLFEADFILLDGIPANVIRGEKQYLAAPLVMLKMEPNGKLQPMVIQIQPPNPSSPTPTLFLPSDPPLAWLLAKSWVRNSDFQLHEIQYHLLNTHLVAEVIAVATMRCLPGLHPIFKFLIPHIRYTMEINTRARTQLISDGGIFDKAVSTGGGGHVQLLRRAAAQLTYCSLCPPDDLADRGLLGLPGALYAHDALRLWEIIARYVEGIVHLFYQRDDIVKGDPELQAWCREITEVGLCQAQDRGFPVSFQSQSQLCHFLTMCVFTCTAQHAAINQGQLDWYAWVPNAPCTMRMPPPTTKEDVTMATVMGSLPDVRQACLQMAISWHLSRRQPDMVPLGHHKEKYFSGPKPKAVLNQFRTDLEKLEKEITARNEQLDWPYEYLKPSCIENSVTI
- assay.comment: qHTS Assay for Inhibitors of 12-hLO (12-human lipoxygenase); note: % is set by controls: 0 for no effect and ±100 for the full control effect; nearly all actives have a fitted effect of over 55% in size
- measurement.context: purified 12-hLO, xylenol orange hydroperoxide absorbance; series mostly up to 57.1 µM
The campaign covered roughly 150,000 compounds. About 190 (0.13%) were called active. About 2% were inconclusive and are not listed. This is one part of a sample in which actives are shown more often than they occur.
quantity.measured: activity change, negative = inhibition

1) COc1cccc(NC(=S)NCCCN2CCOCC2)c1 : inactive
2) O=C1OCCN1C(=O)[C@H]1[C@H](c2ccc(Cl)cc2)C(c2cccc(Cl)c2)=NN1c1ccc(Br)cc1 : -6.33% [at 0.00818 µM] (inactive)
3) O=C(CNCc1ccc(F)cc1)Nc1ccccc1-c1ccccc1 : inactive
4) CC(=O)c1c(C)[nH]c(C(=O)COC(=O)c2cccc(S(=O)(=O)N(C)c3ccccc3)c2)c1C : inactive
5) CCCCCCCC[C@@H](O)/C=C/C=C/C=C\[C@@H](O)CCCC(=O)O : inactive
6) CCCCC/C=C\C/C=C\CCCCCCCCCC(=O)O : inactive
7) COCC(C)n1c(C)cc(C(=O)CSc2cc(C)c3ccccc3n2)c1C (stereo unspecified) : inactive
8) N#C/C(=C/c1ccc(N2CCCCC2)o1)C(=O)NCCc1c[nH]c2ccccc12 : inactive
9) Cc1cc2oc(=O)cc(-c3ccccc3)c2c(C)c1-c1ccc(OC(F)(F)F)cc1 : -2.23% [at 0.00818 µM] (inactive)
10) C=CC1=C2C=C(C3CC3)N(C(CO)CO)C=C2C(=O)C(C)(OC(=O)c2ccco2)C1=O (stereo unspecified) : 3.57% [at 11.4 µM] (inactive)
11) CCCCC/C=C\C/C=C\C/C=C\CCCCCCC(N)=O : inactive
12) CCOC(=O)C1C/C(=C\C(C)=O)c2cccc(C(F)(F)F)c2O1 (stereo unspecified) : -1.22% [at 0.00818 µM] (inactive)
13) COC(=O)CCCC1=CC2=CC(=O)C(C)(OC(=O)c3cccs3)C(=O)C2=CN1c1ccc(CO)cc1 (stereo unspecified) : -2.32% [at 11.4 µM] (inactive)
14) CCOC(=O)c1c(NC(=O)C(C)Sc2c[nH]c3ccccc23)sc2c1CCC2 (stereo unspecified) : inactive
15) O=C(/C=C/c1ccc([N+](=O)[O-])cc1)NCCSCc1ccco1 : inactive
16) Cc1cc(N2CCOCC2)nc(-c2ccc(Br)cc2)n1 : inactive
17) O=[N+]([O-])c1ccccc1SNc1ccccn1 : inactive
18) O=C1OCCN1C(=O)[C@H]1[C@H](c2ccccc2)C(c2ccc(F)cc2)=NN1c1ccccc1 : -8.19% [at 0.00818 µM] (inactive)
19) CCOC(=O)C1=C(N)N(c2ccc(C)cc2)C2=C(C(=O)CCC2)C1c1cccs1 (stereo unspecified) : inactive
20) COC(=O)CCCC1=CC2=C(c3ccccc3)C(=O)C(C)(OC(=O)C3CCCC3)C(=O)C2=CN1c1ccc(OC)cc1 (stereo unspecified) : -9.71% [at 11.4 µM] (inactive)
21) CCOC(=O)N1CCN(C(=O)C2CCN(Cc3ccc(OC)cc3OC)CC2)CC1 : inactive

###

- assayed.target: Polyunsaturated fatty acid lipoxygenase ALOX12 (Homo sapiens) (UniProt P18054)
- assay.comment: qHTS Assay for Inhibitors of 12-hLO (12-human lipoxygenase); note: % is set by controls: 0 for no effect and ±100 for the full control effect; nearly all actives have a fitted effect of over 55% in size
- measurement.context: purified 12-hLO, xylenol orange hydroperoxide absorbance; series mostly up to 57.1 µM
Screen size: about 150,000 compounds; about 190 (0.13%) were called active. Roughly 2% stayed inconclusive and do not appear here. The sample as a whole holds a higher share of actives than the screen did.
quantity.measured: activity change, negative = inhibition

1. CCCCCCCC[n+]1cccc(C(=O)N2c3c(nc(N)[nH]c3=O)NC(C)C2C)c1 (stereo not given) : inactive
2. C=C1c2cccc(OC)c2O[C@H](C(=O)OCC)[C@@H]1CCCCCC : -4.96% [at 0.00818 µM] (inactive)
3. CCOC(=O)c1c(NC(=O)C2(C)Cc3ccccc3C(=O)O2)sc2c1CCCC2 (stereo not given) : inactive
4. O=C(CSC1CC(=O)N(CCc2ccccc2)C1=O)Nc1ccc(Cl)cc1 (stereo not given) : inactive
5. COc1ccc(-c2nnc(SCc3cccnc3)o2)cc1 : inactive
6. O=C(Cn1nc(CNc2ccc(Cl)cc2)[n+]2c1CCCCC2)c1ccc(Cl)cc1 : inactive
7. CC1=C(/C=C/C(C)=C/C=C/C(C)=C/C=C/C=C(C)/C=C/C=C(C)/C=C/C(=O)[C@]2(C)C[C@@H](O)CC2(C)C)C(C)(C)C[C@H](O)C1 : -3.45% [at 0.00818 µM] (inactive)
8. CCCCCCCC/C=C\CCCCCCCC(=O)NCC(=O)O : inactive
9. Cc1nc(-c2ccccc2)cn2c1nc1ccccc12 : inactive
10. Cc1cc(C)cc(OCC(=O)NNC(=O)CCN2C(=O)c3ccccc3C2=O)c1 : inactive
11. CC(C)CN(C(=O)CN1CCN(S(=O)(=O)c2ccccc2)CC1)c1c(N)n(CC(C)C)c(=O)[nH]c1=O : inactive
12. C[C@H]1Cc2c(-c3ccccc3)nc3c(c2CO1)CN(S(=O)(=O)c1ccc(Cl)c2nonc12)CC3 : -3.11% [at 11.4 µM] (inactive)
13. C[C@H]1Cc2c(COc3ccccc3)nc3c(c2CO1)CN(C(=O)NCc1ccco1)CC3 : 1.43% [at 11.4 µM] (inactive)
14. COc1cc(OC)c2c(c1)OC(=O)CC2c1cc(OC)c(OC)c(OC)c1 (stereo not given) : -5.58% [at 0.00818 µM] (inactive)
15. CC(=O)c1c(O)cc2n(c1=O)-c1ccc(Cl)cc1C2(C)C : inactive
16. CCCCOc1ccc(C(=O)N/C(=C/C=C/c2ccccc2)C(=O)N2CCOCC2)cc1 : inactive
17. CC1CCCCN1S(=O)(=O)c1ccc(S(=O)(=O)N(CC(=O)Nc2ccccc2)Cc2cccs2)cc1 (stereo not given) : inactive
18. COc1ccc(-c2c(C)cc3oc(=O)cc(-c4ccccc4)c3c2C)cc1OC : -1.07% [at 0.00818 µM] (inactive)
19. COCCCNC(=S)NC(=O)c1ccccc1 : inactive
20. COc1cc(CCC(=O)OCC(=O)Nc2cccc(S(N)(=O)=O)c2)cc(OC)c1OC : inactive
